Attribution: ChEMBL document CHEMBL4371026

Assay: Half life in simulated gastric fluid TS
Format: ADME
PROPERTY MEASURED: half-life (min)

SMILES REPRESENTATION: N#C/C(=C\c1cccc2cnccc12)c1cn(C(=O)C2CCNCC2)c2ccccc12
PROPERTY MEASURED: half-life
QUAL: >
MEAS VALUE: 1440
//
SMILES REPRESENTATION: CN1CCN(CC(=O)n2cc(/C(C#N)=C/c3cccc4cnccc34)c3ccccc32)CC1
PROPERTY MEASURED: half-life
QUAL: =
MEAS VALUE: 1440

* * *

Catalogue of metabolised at 0.25 h values
Experiment: Stability in human plasma assessed as compound hydrolysis measured within 15 mins
Format: ADME, cell-free
Conditions: read-out: Drug degradation

SMILES REPRESENTATION: CN1CCN(CC(=O)n2cc(/C(C#N)=C/c3cccc4cnccc34)c3ccccc32)CC1
metabolised at 0.25 h: > 90%
--
SMILES REPRESENTATION: N#C/C(=C\c1cccc2cnccc12)c1cn(C(=O)C2CCNCC2)c2ccccc12
metabolised at 0.25 h: > 90%
